experiment: A CellTox Green Cytotoxicity Assay to monitor cytotoxicity in HepG2 cells - 24 hour (AID 1224878); conditions: CellTox Green fluorescence; series mostly up to 76.8 µM; note: nearly all actives have a fitted effect of over 45% in size
Records with an inconclusive call do not appear. Activity calls are given as the source filed them. Calls come from the whole dose curve; as a rule, active = well fitted activation curve with a large enough effect in the repeat runs; inconclusive = weak or mixed curves; inactive = flat fitted curve, though single readings scatter.
The reply should name one outcome from active, inactive

Exam item: Record request — test call for CC1=C(C(=O)Nc2ccccc2)S(=O)(=O)CCO1
Marked response: inactive

Further cases:
Exam item: Record request — test call for O=C(O)C(Br)CBr (stereo not given)
Marked response: inactive

Exam item: What about CC1(C)C(=O)NC(=O)NC1=O ?
Marked response: inactive

Exam item: What about CS(=O)(=O)c1cc(C(F)(F)F)ccc1C(=O)c1cnoc1C1CC1 ?
Marked response: inactive

###

experiment: qHTS assay to identify small molecule antagonists of the sonic hedgehog signaling (Shh) pathway (AID 1259369); details: NIH/3T3 Gli1-Luc reporter, Shh antagonist, luminescence 24 h; series mostly up to 92.4 µM; note: nearly all actives have a fitted effect of over 45% in size; note: potency is the fitted concentration of half-maximal effect
Results filed as inconclusive are left out. Active and inactive are the calls of the source. The call rests on the fitted dose curve.
PARAMETER MEASURED: Potency

Some entries whose results are on file:
Exam item: Bench note: what Potency did CNC(=O)N(C)c1nc2ccccc2s1 show?
Marked response: inactive

Exam item: What about CCC/C(=N\OCC)C1=C(O)CC(CC(C)SCC)CC1=O (stereo unspecified) ?
Marked response: 30.8 µM (active)

Exam item: What about ClCCCN1CCN(c2cccc(Cl)c2)CC1 ?
Marked response: inactive

Exam item: What about COC(=O)C(C)Oc1ccc(Oc2ccc(Cl)cc2Cl)cc1 (stereo unspecified) ?
Marked response: inactive

Exam item: What about Clc1ccccc1N1CCNCC1 ?
Marked response: inactive

Exam item: What about CCCCN(CCCCO)N=O ?
Marked response: inactive

Exam item: What about ClC(Cl)Br ?
Marked response: inactive

Exam item: What about NC(=S)C(N)=S ?
Marked response: inactive

Further cases:
Exam item: Bench note: what Potency did BrCCCCCCBr show?
Marked response: 24.3 µM (active)

Exam item: What about O=C1CN2CCOC2(c2ccccc2Cl)c2cc(Cl)ccc2N1 (stereo unspecified) ?
Marked response: inactive

Exam item: What about CCCCc1ccc(O)cc1 ?
Marked response: inactive

###

target: Cytochrome P450 2D6 (Homo sapiens) (UniProt P10635); assay: Cytochrome P450 Family 2 Subfamily D Member 6 (CYP2D6) small molecule antagonists: luciferase reporter qHTS assay (AID 1671196); settings: P450-Glo CYP2D6 enzyme assay, luciferin luminescence, 1 h; series mostly up to 115 µM; note: nearly all actives have a fitted effect of over 50% in size
Sequence (P10635 whole entry, looked up): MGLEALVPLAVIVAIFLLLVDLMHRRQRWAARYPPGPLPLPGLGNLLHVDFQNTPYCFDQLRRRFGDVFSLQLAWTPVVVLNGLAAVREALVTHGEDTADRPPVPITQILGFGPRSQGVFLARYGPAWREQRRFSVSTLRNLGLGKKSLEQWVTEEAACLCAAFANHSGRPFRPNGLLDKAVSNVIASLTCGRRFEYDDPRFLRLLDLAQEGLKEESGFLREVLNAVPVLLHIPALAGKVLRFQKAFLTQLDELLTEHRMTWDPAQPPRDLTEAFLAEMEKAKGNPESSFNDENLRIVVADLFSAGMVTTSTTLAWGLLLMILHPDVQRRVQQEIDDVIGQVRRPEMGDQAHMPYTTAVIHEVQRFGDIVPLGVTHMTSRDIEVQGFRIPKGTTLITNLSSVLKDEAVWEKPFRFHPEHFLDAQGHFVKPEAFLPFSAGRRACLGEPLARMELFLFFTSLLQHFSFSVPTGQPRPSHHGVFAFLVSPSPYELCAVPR
Inconclusive results are not listed. Activity calls are given as the source filed them. Calls come from the whole dose curve; as a rule, active = well fitted inhibition curve with a large enough effect in the repeat runs; inconclusive = weak or mixed curves; inactive = no such curve, though single readings can be large or run the other way.
The reply should name one outcome from active, inactive

Exam item: Record request — test call for CC1CCCCC1NC(=O)Nc1ccccc1 (centres undefined)
Marked response: active

Exam item: What about c1ccc(N2CCNCC2)cc1 ?
Marked response: inactive

Exam item: What about CC(C)CC(N(C)C)C1(c2ccc(Cl)cc2)CCC1 (centres undefined) ?
Marked response: active

Exam item: What about CSc1nc(N=[N+]=[N-])nc(NC(C)C)n1 ?
Marked response: inactive

Exam item: What about O=CNC(N1CCN(C(NC=O)C(Cl)(Cl)Cl)CC1)C(Cl)(Cl)Cl (centres undefined) ?
Marked response: active

Further cases:
Exam item: Record request — test call for O=C1OC(c2ccc(O)c(S(=O)(=O)O)c2)(c2ccc(O)c(S(=O)(=O)O)c2)c2c(Br)c(Br)c(Br)c(Br)c21
Marked response: inactive

Exam item: What about CC1=NNC(=O)N(/N=C/c2cccnc2)C1 ?
Marked response: inactive

Exam item: What about ClCC(Cl)(Cl)Cl ?
Marked response: inactive

Exam item: What about O=NN1CCCCC1 ?
Marked response: inactive

Exam item: What about O=[N+]([O-])c1cccc2cccnc12 ?
Marked response: inactive
